Values were extracted from patent US20190328691A1.

# Test system: Staphylococcus aureus (ATCC 29213)
# EXPERIMENTAL_DETAILS: Checkerboard combination / MIC assay with S. aureus ATCC 29213
# Type: cell-based
# TEST_SETTINGS: Ramizol 0.0625 μg/mL; S. aureus ATCC 29213
VALUE_KIND: MIC of antibiotic in combination with Ramizol (µg/mL)
Give the number; µg/mL is assumed, so skip it.

Q: Find the recorded MIC of antibiotic in combination with Ramizol belonging to CO/N=C(\C(=O)N[C@@H]1C(=O)N2C(C(=O)[O-])=C(C[N+]3(C)CCCC3)CS[C@H]12)c1csc(N)n1 [Cefepime] and report it.
A: 4

Q: Find the recorded MIC of antibiotic in combination with Ramizol belonging to `CN[C@H](CC(C)C)C(=O)N[C@H]1C(=O)N[C@@H](CC(N)=O)C(=O)N[C@H]2C(=O)N[C@H]3C(=O)N[C@H](C(=O)N[C@H](C(=O)O)c4cc(O)cc(O)c4-c4cc3ccc4O)[C@H](O)c3ccc(c(Cl)c3)Oc3cc2cc(c3O[C@@H]2O[C@H](CO)[C@@H](O)[C@H](O)[C@H]2O[C@H]2C[C@](C)(N)[C@H](O)[C@H](C)O2)Oc2ccc(cc2Cl)[C@H]1O` and report it.
A: 1

Q: Find the recorded MIC of antibiotic in combination with Ramizol belonging to `CCCCCCCCCC(=O)N[C@@H](Cc1c[nH]c2ccccc12)C(=O)N[C@H](CC(N)=O)C(=O)N[C@@H](CC(=O)O)C(=O)N[C@@H]1C(=O)NCC(=O)N[C@@H](CCCN)C(=O)N[C@@H](CC(=O)O)C(=O)N[C@H](C)C(=O)N[C@@H](CC(=O)O)C(=O)NCC(=O)N[C@H](CO)C(=O)N[C@@H]([C@H](C)CC(=O)O)C(=O)N[C@@H](CC(=O)c2ccccc2N)C(=O)O[C@@H]1C` and report it.
A: 0.5

Q: Find the recorded MIC of antibiotic in combination with Ramizol belonging to `CC(=O)NC[C@H]1CN(c2ccc(N3CCOCC3)c(F)c2)C(=O)O1` and report it.
A: 4

Q: Find the recorded MIC of antibiotic in combination with Ramizol belonging to `Cc1onc(-c2ccccc2)c1C(=O)N[C@@H]1C(=O)N2[C@@H]1SC(C)(C)[C@@H]2C(=O)O` and report it.
A: 0.5

Q: Find the recorded MIC of antibiotic in combination with Ramizol belonging to `C/C(=C\C(=O)OCCCCCCCCC(=O)O)C[C@@H]1OC[C@H](C[C@@H]2O[C@H]2[C@@H](C)[C@H](C)O)[C@@H](O)[C@H]1O` and report it.
A: 0.5
